Target: μ opioid receptors (Cavia porcellus, UniProt P97266)
Sequence (P97266 whole entry, looked up): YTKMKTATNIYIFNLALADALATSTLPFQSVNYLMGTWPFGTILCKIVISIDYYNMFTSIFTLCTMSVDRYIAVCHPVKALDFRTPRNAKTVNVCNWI
Test: GPI assay: inhibition of electrically evoked contractions of the guinea pig ileum
Conditions: means of 3-6 determinations ± SEM, normalized to [Leu5]enkephalin standard, read-out: IC50 in the GPI assay (agonist potency)
pIC50: −log10 of the molar value. Positions of bridges follow the written chain, without caps; N, C: chain ends. Non-standard residues stand in square brackets, D forms with d. Residues, ends and D or L forms follow the SMILES beside them. 2Nal = N[C@@H](Cc1ccc2ccccc2c1)C(=O)O; Dmt = Cc1cc(O)cc(C)c1C[C@H](N)C(=O)O; dOrn = NCCC[C@@H](N)C(=O)O; NMeAib = CNC(C)(C)C(=O)O; Sar = CNCC(=O)O
Recorded measurements of pIC50, one per entry

compound: CN[C@@H](Cc1ccc(O)cc1)C(=O)N[C@@H]1CCCNC(=O)CNC(=O)[C@H]2CCCN2C(=O)[C@H](Cc2ccc3ccccc3c2)NC1=O [Example 1, Tyr(NMe)-c[-D-Orn-2-Nal-D-Pro-Gly-]] (HELM PEPTIDE1{[meY].[O=C([C@@H](CCCN[*:3])N[*:1])[*:2]].[O=C([C@H](Cc1ccc2ccccc2c1)N[*:1])[*:2]].[dP].G}$PEPTIDE1,PEPTIDE1,2:R3-5:R2$$$V2.0)
system name: μ opioid receptors (Cavia porcellus, UniProt P97266)
pIC50: 7.03

compound: Cc1cc(O)cc(C)c1C[C@H](N)C(=O)N[C@@H]1CCCNC(=O)CN(C)C(=O)[C@H]2CCCN2C(=O)[C@H](Cc2ccc3ccccc3c2)NC1=O [Example 4, H-Dmt-c[-D-Orn-2-Nal-D-Pro-Sar-]] (H-[Dmt][dOrn][2Nal][dP][Sar]; lactam 2-C)
system name: μ opioid receptors (Cavia porcellus, UniProt P97266)
pIC50: 7.84

compound: Cc1cc(O)cc(C)c1C[C@H](N)C(=O)N[C@@H]1CCCNC(=O)CNC(=O)[C@H]2CCCN2C(=O)[C@H](Cc2ccc3ccccc3c2)NC1=O [Example 3, H-Dmt-c[-D-Orn-2-Nal-D-Pro-Gly-]] (H-[Dmt][dOrn][2Nal][dP]G; lactam 2-C)
system name: μ opioid receptors (Cavia porcellus, UniProt P97266)
pIC50: 8.10

compound: CN1C(=O)[C@H]2CCCN2C(=O)[C@H](Cc2ccc3ccccc3c2)NC(=O)[C@H](NC(=O)[C@@H](N)Cc2ccc(O)cc2)CCCNC(=O)C1(C)C [Example 7, H-Tyr-c[-D-Orn-2-Nal-D-Pro-MeAib-]] (H-Y[dOrn][2Nal][dP][NMeAib]; lactam 2-C)
system name: μ opioid receptors (Cavia porcellus, UniProt P97266)
pIC50: 6.64

compound: Cc1cc(O)cc(C)c1C[C@H](N)C(=O)N[C@@H]1CCCNC(=O)[C@@H](C)NC(=O)[C@H]2CCCN2C(=O)[C@H](Cc2ccc3ccccc3c2)NC1=O [Example 10, H-Dmt-c[-D-Orn-2-Nal-D-Pro-D-Ala-]] (H-[Dmt][dOrn][2Nal][dP][dA]; lactam 2-C)
system name: μ opioid receptors (Cavia porcellus, UniProt P97266)
pIC50: 7.98

compound: C[C@H]1NC(=O)[C@H]2CCCN2C(=O)[C@H](Cc2ccc3ccccc3c2)NC(=O)[C@H](NC(=O)[C@@H](N)Cc2ccc(O)cc2)CCCNC1=O [Example 5, H-Tyr-c[-D-Orn-2-Nal-D-Pro-D-Ala-]] (HELM PEPTIDE1{Y.[O=C([C@@H](CCCN[*:3])N[*:1])[*:2]].[O=C([C@H](Cc1ccc2ccccc2c1)N[*:1])[*:2]].[dP].[dA]}$PEPTIDE1,PEPTIDE1,2:R3-5:R2$$$V2.0)
system name: μ opioid receptors (Cavia porcellus, UniProt P97266)
pIC50: 6.22

compound: CC1(C)NC(=O)[C@H]2CCCN2C(=O)[C@H](Cc2ccc3ccccc3c2)NC(=O)[C@H](NC(=O)[C@@H](N)Cc2ccc(O)cc2)CCCNC1=O [Example 6, H-Tyr-c[-D-Orn-2-Nal-D-Pro-Aib-]] (HELM PEPTIDE1{Y.[O=C([C@@H](CCCN[*:3])N[*:1])[*:2]].[O=C([C@H](Cc1ccc2ccccc2c1)N[*:1])[*:2]].[dP].[Aib]}$PEPTIDE1,PEPTIDE1,2:R3-5:R2$$$V2.0)
system name: μ opioid receptors (Cavia porcellus, UniProt P97266)
pIC50: 6.35

compound: N[C@@H](Cc1ccc(O)cc1)C(=O)N[C@@H]1CCCCNC(=O)CNC(=O)[C@H]2CCCN2C(=O)[C@H](Cc2ccc3ccccc3c2)NC1=O [H-Tyr-c[-D-Lys-2-Nal-D-Pro-Gly-], reference compound] (HELM PEPTIDE1{Y.[dK].[O=C([C@H](Cc1ccc2ccccc2c1)N[*:1])[*:2]].[dP].G}$PEPTIDE1,PEPTIDE1,2:R3-5:R2$$$V2.0)
system name: μ opioid receptors (Cavia porcellus, UniProt P97266)
pIC50: 6.22

compound: N[C@@H](Cc1ccc(O)cc1)C(=O)N[C@@H]1CCCNC(=O)CNC(=O)[C@H]2CCCN2C(=O)[C@H](Cc2ccc3ccccc3c2)NC1=O [H-Tyr-c[-D-Orn-2-Nal-D-Pro-Gly-], reference compound] (HELM PEPTIDE1{Y.[O=C([C@@H](CCCN[*:3])N[*:1])[*:2]].[O=C([C@H](Cc1ccc2ccccc2c1)N[*:1])[*:2]].[dP].G}$PEPTIDE1,PEPTIDE1,2:R3-5:R2$$$V2.0)
system name: μ opioid receptors (Cavia porcellus, UniProt P97266)
pIC50: 6.42

compound: CN1CC(=O)NCCC[C@@H](NC(=O)[C@@H](N)Cc2ccc(O)cc2)C(=O)N[C@@H](Cc2ccc3ccccc3c2)C(=O)N2CCC[C@@H]2C1=O [Example 2, H-Tyr-c[-D-Orn-2-Nal-D-Pro-Sar-]] (HELM PEPTIDE1{Y.[O=C([C@@H](CCCN[*:3])N[*:1])[*:2]].[O=C([C@H](Cc1ccc2ccccc2c1)N[*:1])[*:2]].[dP].[Sar]}$PEPTIDE1,PEPTIDE1,2:R3-5:R2$$$V2.0)
system name: μ opioid receptors (Cavia porcellus, UniProt P97266)
pIC50: 6.80

compound: CC[C@@H](C)[C@H]1NC(=O)[C@H]2CCCN2C(=O)[C@H](Cc2ccc3ccccc3c2)NC(=O)[C@H](NC(=O)[C@@H](N)Cc2ccc(O)cc2)CCCNC1=O [Example 9, H-Tyr-c[-D-Orn-2-Nal-D-Pro-D-Ile-]] (HELM PEPTIDE1{Y.[O=C([C@@H](CCCN[*:3])N[*:1])[*:2]].[O=C([C@H](Cc1ccc2ccccc2c1)N[*:1])[*:2]].[dP].[dI]}$PEPTIDE1,PEPTIDE1,2:R3-5:R2$$$V2.0)
system name: μ opioid receptors (Cavia porcellus, UniProt P97266)
pIC50: 6.09

compound: CC(C)[C@H]1NC(=O)[C@H]2CCCN2C(=O)[C@H](Cc2ccc3ccccc3c2)NC(=O)[C@H](NC(=O)[C@@H](N)Cc2ccc(O)cc2)CCCNC1=O [Example 8, H-Tyr-c[-D-Orn-2-Nal-D-Pro-D-Val-]] (HELM PEPTIDE1{Y.[O=C([C@@H](CCCN[*:3])N[*:1])[*:2]].[O=C([C@H](Cc1ccc2ccccc2c1)N[*:1])[*:2]].[dP].[dV]}$PEPTIDE1,PEPTIDE1,2:R3-5:R2$$$V2.0)
system name: μ opioid receptors (Cavia porcellus, UniProt P97266)
pIC50: 6.27
